B1: Unconventional myosin-Ie, residues 1051 to 1108; numbered along this chain, Q12965 (parent)
chain: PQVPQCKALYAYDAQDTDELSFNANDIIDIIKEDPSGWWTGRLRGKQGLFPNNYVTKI

variants of: B1; experiment: abundance fitness (aPCA) (normalised: wild type 0, dead -1); higher = more abundant; growth selection in yeast, the domain comes from the species named; conditions: Homo sapiens
For each record, write down the corresponding abundance fitness.
A bare number is all that is needed in reply.

Entry under review: `L43W` . Reported abundance fitness?
-0.706

Would you mind doing `K7I` as well?
0.004

Follow-up item: `D13M`
-0.16

Then this variant: `I27F`
-0.274

And what about the variant `Y12F` ?
-0.377

How about this variant: `C6H`
-0.839

Please answer likewise for `Q2I`
-0.176

Next variant up: `N52V`
-0.068

Further, for `L49V` ?
-0.015

Entry `Y10S` please
-0.166

Moving on to `T40P`
-1.01

Follow-up entry: `A8C`
-0.196

Quick one: `I27L`
-0.15

// query: `G45R`
-0.337

And then `R44E` , what is it?
-0.319

Queued: `L49P`
-0.656

How about this variant: `I30A`
-0.78

Next variant: `D26F`
-0.726

Try this variant next: `G48F`
-0.598

Record: `Q15V`
-0.193

Query `I27K` next
-0.228

Can you handle `K32A` next?
-0.056

What about this variant? `I27Y`
-0.19
